Every entry's value here was drawn from the supplement of paper PMC11061612.

tested on: KS-1 (Glioblastoma); test: combination Emax (second highest fraction inhibited in the dose matrix, 72 h); higher = more inhibition; extreme values may be limits of the assay
Where combination Emax equals or exceeds 0.6, the correct label is MET; where it does not, the label is NOT MET.

>  <compound>
CN(CCO)CC[C@H](CSc1ccccc1)Nc1ccc(S(=O)(=O)NC(=O)c2ccc(N3CCC([C@@H](O)c4ccccc4-c4ccc(Cl)cc4)CC3)cc2)cc1S(=O)(=O)C(F)(F)F [AZD4320] + Nc1ccn([C@@H]2O[C@H](CO)[C@@H](O)C2(F)F)c(=O)n1 [Gemcitabine] (first compound max 1 µM, 7x7, partner max 0.3 µM)

>  <tested on>
KS-1 (Glioblastoma)

>  <class label>
NOT MET

$$$$
>  <compound>
CN(C)CCCOc1ccc(-c2ccc3ncc4c(c3c2)n(C2CCOCC2)c(=O)n4C)cn1 [AZD0156] + CCN(CCO)CCCOc1ccc2c(Nc3cc(CC(=O)Nc4cccc(F)c4)[nH]n3)ncnc2c1 [AZD2811] (first compound max 1 µM, 7x7, partner max 1 µM)

>  <tested on>
KS-1 (Glioblastoma)

>  <class label>
NOT MET

$$$$
>  <compound>
CS(=O)(=O)CCNCc1ccc(-c2ccc3ncnc(Nc4ccc(OCc5cccc(F)c5)c(Cl)c4)c3c2)o1 [Lapatinib] + C[C@@H](Oc1cc(-c2cnn(C3CCNCC3)c2)cnc1N)c1c(Cl)ccc(F)c1Cl [Crizotinib] (first compound max 10 µM, 7x7, partner max 10 µM)

>  <tested on>
KS-1 (Glioblastoma)

>  <class label>
MET

$$$$

Asked: Item CC1(C)CCC(CN2CCN(c3ccc(C(=O)NS(=O)(=O)c4ccc(NCC5CCOCC5)c([N+](=O)[O-])c4)c(Oc4cnc5[nH]ccc5c4)c3)CC2)=C(c2ccc(Cl)cc2)C1 [Venetoclax] + C[C@@H](Nc1cc(F)cc(F)c1)c1cc(C(=O)N(C)C)cc2c(=O)cc(N3CCOCC3)oc12 [AZD8186] (first compound max 1 µM, 7x7, partner max 3 µM) with combination Emax of 0.6 or above?
Given back: NOT MET

Asked: // next record O=C(c1cc(Cc2n[nH]c(=O)c3ccccc23)ccc1F)N1CCN(C(=O)C2CC2)CC1 [Olaparib] + COc1nnc2ccc(N3CCC(c4ccc(OCCN5CCN(C)C(=O)[C@H]5C)cc4)CC3)nn12 [AZD5153] (first compound max 10 µM, 7x7, partner max 1 µM)
Given back: NOT MET

====

test system: NCI-H2052 (Mesothelioma); assay: Bliss excess, mean over the matrix (fraction); higher = more synergy;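 also: after 72 h of two-drug dosing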
Assign Criterion met to entries whose Bliss excess meets or exceeds -0.03; assign Criterion not met to the rest.

Consider the worked cases shown below.
>  <compound>
CN(CCO)CC[C@H](CSc1ccccc1)Nc1ccc(S(=O)(=O)NC(=O)c2ccc(N3CCC([C@@H](O)c4ccccc4-c4ccc(Cl)cc4)CC3)cc2)cc1S(=O)(=O)C(F)(F)F [AZD4320] + C[C@@H](Nc1cc(F)cc(F)c1)c1cc(C(=O)N(C)C)cc2c(=O)cc(N3CCOCC3)oc12 [AZD8186] (first compound max 1 µM, 7x7, partner max 3 µM)

>  <class label>
Criterion met

$$$$
>  <compound>
COc1cccc(OCCCN)c1-c1cc(Nc2cnc(C#N)cn2)n[nH]1 [Prexasertib] + C[C@@H]1COCCN1C2=NC(=NC(=C2)C3(CC3)[S@](=N)(=O)C)C4=C5C=CNC5=NC=C4 [AZD6738] (first compound max 1 µM, 7x7, partner max 10 µM)

>  <class label>
Criterion met

$$$$
>  <compound>
Cc1c2c(nn1C)CSCc1cc(n(C)n1)CSc1cc(c3ccccc3c1)OCCCc1c(C(=O)O)n(C)c3c-2c(Cl)ccc13 [AZD5991] + CC1(C)CCC(CN2CCN(c3ccc(C(=O)NS(=O)(=O)c4ccc(NCC5CCOCC5)c([N+](=O)[O-])c4)c(Oc4cnc5[nH]ccc5c4)c3)CC2)=C(c2ccc(Cl)cc2)C1 [Venetoclax] (first compound max 1 µM, 7x7, partner max 1 µM)

>  <class label>
Criterion met

$$$$
>  <compound>
C=CCn1c(=O)c2cnc(Nc3ccc(N4CCN(C)CC4)cc3)nc2n1-c1cccc(C(C)(C)O)n1 [AZD1775] + C[C@@H]1COCCN1C2=NC(=NC(=C2)C3(CC3)[S@](=N)(=O)C)C4=C5C=CNC5=NC=C4 [AZD6738] (first compound max 1 µM, partner max 10 µM)

>  <class label>
Criterion met

$$$$
>  <compound>
Cc1c2c(nn1C)CSCc1cc(n(C)n1)CSc1cc(c3ccccc3c1)OCCCc1c(C(=O)O)n(C)c3c-2c(Cl)ccc13 [AZD5991] + C=CCn1c(=O)c2cnc(Nc3ccc(N4CCN(C)CC4)cc3)nc2n1-c1cccc(C(C)(C)O)n1 [AZD1775] (first compound max 1 µM, partner max 1 µM)

>  <class label>
Criterion not met

$$$$
>  <compound>
Cc1c2c(nn1C)CSCc1cc(n(C)n1)CSc1cc(c3ccccc3c1)OCCCc1c(C(=O)O)n(C)c3c-2c(Cl)ccc13 [AZD5991] + CCN(CCO)CCCOc1ccc2c(Nc3cc(CC(=O)Nc4cccc(F)c4)[nH]n3)ncnc2c1 [AZD2811] (first compound max 1 µM, 7x7, partner max 1 µM)

>  <class label>
Criterion met

$$$$

Asked: Say whether COc1nnc2ccc(N3CCC(c4ccc(OCCN5CCN(C)C(=O)[C@H]5C)cc4)CC3)nn12 [AZD5153] + C=CCn1c(=O)c2cnc(Nc3ccc(N4CCN(C)CC4)cc3)nc2n1-c1cccc(C(C)(C)O)n1 [AZD1775] (first compound max 1 µM, partner max 1 µM) shows Bliss excess of -0.03 or more.
Given back: Criterion not met

Asked: Likewise for Cn1cnc2c(F)c(Nc3ccc(Br)cc3Cl)c(C(=O)NOCCO)cc21 [Selumetinib] + CCN(CCO)CCCOc1ccc2c(Nc3cc(CC(=O)Nc4cccc(F)c4)[nH]n3)ncnc2c1 [AZD2811] (first compound max 10 µM, 7x7, partner max 1 µM) ?
Given back: Criterion not met
